test system: Acinetobacter baumannii
READOUT_LABEL: MIC

Examples with answers:
CHEMICAL_SMILES	OBSERVED_MEASUREMENT
CC[C@H](C)[C@H](NC(=O)[C@H](CCCN=C(N)N)NC(=O)[C@H](CO)NC(=O)[C@H](CC(C)C)NC(=O)[C@H](Cc1ccccc1)NC(=O)[C@H](Cc1ccccc1)NC(=O)[C@@H](N)Cc1ccccc1)C(=O)N[C@@H](Cc1ccccc1)C(N)=O	≥ 100 µM
CC[C@H](C)[C@H](N)C(=O)N[C@@H](CC(C)C)C(=O)N[C@@H](CCCCN)C(=O)N1CCC[C@H]1C(=O)N[C@@H](CCCCN)C(=O)N[C@@H](CC(C)C)C(=O)N[C@@H](Cc1c[nH]c2ccccc12)C(=O)N[C@@H](CCCCN)C(=O)N[C@@H](CC(C)C)C(=O)N[C@H](C(=O)N[C@H](C(=O)N[C@H](C(=O)N[C@@H](C)C(=O)N[C@@H](CCCN=C(N)N)C(=O)N[C@@H](CCCCN)C(=O)N[C@H](C(=O)N[C@H](C(=O)N[C@@H](CCCCN)C(=O)O)[C@@H](C)CC)[C@@H](C)CC)C(C)C)C(C)C)[C@@H](C)O	≥ 64 µM

# ---- query compound ----
For "CC[C@H](C)[C@H](NC(=O)[C@H](CCCCN)NC(=O)[C@H](CC(C)C)NC(=O)[C@H](C)NC(=O)[C@H](CCCCN)NC(=O)[C@H](CC(C)C)NC(=O)[C@H](C)NC(=O)CNC(=O)[C@H](CCCCN)NC(=O)[C@H](C)NC(=O)[C@@H](NC(=O)[C@@H](N)CCCCN)[C@@H](C)CC)C(=O)N[C@@H](C)C(=O)N[C@@H](CCCCN)C(=O)NCC(=O)N[C@@H](C)C(=O)N[C@@H](CC(C)C)C(=O)N[C@@H](CCCCN)C(=O)N[C@@H](C)C(=O)N[C@@H](CC(C)C)C(N)=O" on Acinetobacter baumannii, measured MIC was ≥ 64 µM

====

Entries with their measured MIC, system Bacillus subtilis ATCC 6633:

Examples with answers:
MOLECULE	MIC
CC[C@H](C)[C@H](NC(=O)[C@H](CCCCN)NC(=O)[C@@H](NC(=O)[C@H](Cc1c[nH]c2ccccc12)NC(=O)[C@H](CS)NC(=O)[C@H](CCCNC(=N)N)NC(=O)[C@@H]1CCCN1C(=O)[C@@H](N)CCCNC(=N)N)[C@@H](C)CC)C(=O)N[C@@H](CCCCN)C(=O)N[C@@H](Cc1ccccc1)C(=O)N[C@@H](CCCNC(=N)N)C(=O)N[C@@H](CS)C(=O)N[C@@H](CCCCN)C(=O)N[C@@H](CO)C(=O)N[C@@H](CC(C)C)C(=O)N[C@@H](CCCCN)C(=O)N[C@@H](Cc1ccccc1)C(=O)O [RPRCWIKIKFRCKSLKF]	≥ 45.3 µM
CC(C)C[C@H](NC(=O)[C@H](CC(=O)O)NC(=O)[C@H](CC(C)C)NC(=O)[C@H](CCCCN)NC(=O)[C@H](CC(C)C)NC(=O)[C@H](CC(=O)O)NC(=O)[C@H](CC(C)C)NC(=O)[C@H](CCCCN)NC(=O)[C@H](CC(C)C)NC(=O)[C@H](CC(=O)O)NC(=O)[C@H](CC(C)C)NC(=O)[C@@H](N)CCCCN)C(=O)O [KLDLKLDLKLDL]	≥ 100 µM
NCCCC[C@H](NC(=O)[C@H](CCCCN)NC(=O)[C@H](Cc1c[nH]c2ccccc12)NC(=O)[C@H](CCCCN)NC(=O)[C@H](Cc1ccccc1)NC(=O)[C@H](CCCN=C(N)N)NC(=O)[C@H](Cc1c[nH]c2ccccc12)NC(=O)[C@@H](N)CCCN=C(N)N)C(=O)O [RWRFKWKK]	≥ 81 µM
NC(=O)CC[C@H](NC(=O)[C@H](CCC(N)=O)NC(=O)[C@H](CCC(=O)O)NC(=O)[C@H](Cc1ccccc1)NC(=O)[C@H](CCC(=O)O)NC(=O)[C@H](Cc1c[nH]c2ccccc12)NC(=O)[C@H](CCC(=O)O)NC(=O)[C@H](Cc1ccccc1)NC(=O)[C@H](CCCN=C(N)N)NC(=O)[C@H](CCC(N)=O)NC(=O)[C@@H](N)CCC(N)=O)C(N)=O [QQRFEWEFEQQ]	≥ 329 µM

# ---- query molecule ----
For CC(C)C[C@H](NC(=O)[C@H](Cc1c[nH]c2ccccc12)NC(=O)[C@H](CCCCN)NC(=O)[C@H](CCCCN)NC(=O)[C@@H](N)CC(C)C)C(=O)N[C@@H](CCCCN)C(N)=O [LKKWLK] on Bacillus subtilis ATCC 6633, measured MIC was ≥ 245 µM
